System: Wnt5a (protein binding on small-molecule microarray)
Experiment: small molecules binding Wnt5a protein – biophysical, small-molecule microarray, 635/667 nm fluorescence, primary screen (AID 1142);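 note: fluorescence read at 667 nm with signal to noise per printed feature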
Details: 635 nm fluorescence, higher = more signal
Binning rule for recorded composite z-score: category 1 (below 0.09), category 2 (0.09 to below 0.4), category 3 (0.4 or more)

Molecule	Target Desc	Classification
O=C1C[C@@](C(=O)NCc2ccccc2)(c2ccc([N+](=O)[O-])cc2)[C@@H](c2ccc(CO)cc2I)N1C1CCCCC1	Wnt5a (protein binding on small-molecule microarray)	category 2
COC(=O)c1ccc(OC)c(/C=C\CC(CCc2ccccc2)OC(=O)c2ccncc2)c1 (stereo not given)	Wnt5a (protein binding on small-molecule microarray)	category 1
C[N+](C)(C)CCCC[C@@H]1NC(=O)[C@H]2C[C@@H](C(=O)NCCCCCCN)[C@@H](c3cccc(OCCO)c3)N2C1=O	Wnt5a (protein binding on small-molecule microarray)	category 3
COc1cc2c(cc1OC)CN(C(=O)[C@@H]1[C@H]3C(=O)O[C@H](c4ccccc4)[C@H](c4ccccc4)N3[C@H](c3ccc(OCCO)cc3)[C@@]13C(=O)Nc1ccc(C#CCCO)cc13)CC2	Wnt5a (protein binding on small-molecule microarray)	category 3
C=CCNC(=O)[C@H]1[C@@H]2C(=O)O[C@@H](c3ccccc3)[C@@H](c3ccccc3)N2[C@@H](c2ccc(O)cc2)[C@]12C(=O)N(C(=O)OCCOC)c1ccc(C#CC3(O)CCCCCC3)cc12	Wnt5a (protein binding on small-molecule microarray)	category 2
COC(=O)[C@]1(Cc2ccccc2CN=[N+]=[N-])N=C(c2ccc(OCCCO)cc2)O[C@@H]1c1ccccc1CN=[N+]=[N-]	Wnt5a (protein binding on small-molecule microarray)	category 3
COC(=O)[C@@]1(Cc2ccccc2)[C@H]2c3cc(C(=O)N4CCCC4)n(Cc4ccc(OC(F)(F)F)cc4)c3C[C@H]2CN1C(=O)c1ccccc1	Wnt5a (protein binding on small-molecule microarray)	category 3
C=CCC(OC(C)=O)[C@@H]1[C@@H](N(Cc2cccc3ccccc23)C(=O)c2ccc(C)cc2)c2cc(OCCCO)ccc2N1C(=O)c1ccc2ccccc2c1 (stereo not given in full)	Wnt5a (protein binding on small-molecule microarray)	category 1
Cc1ccc(S[C@]2(C(=O)O)CC(=O)N(Cc3ccccc3C(F)(F)F)[C@@H]2c2ccc(CO)cc2)cc1	Wnt5a (protein binding on small-molecule microarray)	category 1
C=C(C(=O)CC[C@H](OC(=O)c1cccnc1)c1ccc(OCCO)cc1)C(C)C	Wnt5a (protein binding on small-molecule microarray)	category 2
COc1ccc([Si](C)(C)[C@@H]2[C@@H](CCO)O[C@]3(C(=O)N(Cc4ccc(N5C(=O)c6ccccc6Oc6ccccc65)cc4)c4ccccc43)[C@H]2C)cc1	Wnt5a (protein binding on small-molecule microarray)	category 1
CN(C)CCCNC(=O)[C@@]1(Cc2ccccc2I)c2ccccc2C(=O)N(Cc2ccccc2Cl)[C@H]1c1ccc(CO)cc1	Wnt5a (protein binding on small-molecule microarray)	category 2
O=C1c2ccccc2C(=O)C2CC([C@H]3Oc4ccccc4S(=O)(=O)N4CCC[C@@H]34)=CCC12 (stereo not given in full)	Wnt5a (protein binding on small-molecule microarray)	category 1
CCCCC(=C=CC[C@H](O)c1ccccc1OCCO)C[C@H](O)c1ccccn1	Wnt5a (protein binding on small-molecule microarray)	category 1
O=c1c2ccc(Br)cc2nc(-c2ccccc2)n1Cc1cccc(O)c1	Wnt5a (protein binding on small-molecule microarray)	category 2
Cc1ccccc1C(O)C1C=CC2C(=O)N(Cc3ccccc3)C(=O)C2N1n1cnnc1 (stereo not given)	Wnt5a (protein binding on small-molecule microarray)	category 2
CCOC(=O)C[C@H]1[C@H](OC(=O)c2ccc(C(=O)c3ccccc3)cc2)[C@@H](NC(=O)C2CCCCC2)c2cc(OCCCO)ccc2N1C(=O)Cc1ccc(OC)cc1	Wnt5a (protein binding on small-molecule microarray)	category 2
COC(=O)[C@@]1(Cc2ccc(F)cc2)[C@@H]2[C@@H](CC(=O)[C@H]2CC(=O)C(=O)N2CCCC2)CN1C(=O)c1ccccc1	Wnt5a (protein binding on small-molecule microarray)	category 3
COCC(=C=CC[C@@H](O)c1ccccc1OCCO)C[C@@H](O)COCc1ccccc1	Wnt5a (protein binding on small-molecule microarray)	category 3
[N-]=[N+]=Nc1ccccc1C[C@]1(C(=O)NCCN2CCOCC2)N=C(c2ccc(OCCCO)cc2)O[C@H]1c1ccccc1N=[N+]=[N-]	Wnt5a (protein binding on small-molecule microarray)	category 3
COC(=O)[C@@]1(Cc2ccc(OC)cc2)[C@H]2c3cc(C(=O)N4CCCC4)n(CCF)c3C[C@H]2CN1C(=O)c1ccccc1	Wnt5a (protein binding on small-molecule microarray)	category 3
CN1C(=O)C2C=CC(C(O)COCc3ccccc3)N(Nc3ccccc3)C2C1=O (stereo not given)	Wnt5a (protein binding on small-molecule microarray)	category 2
COc1ccc(C(=O)Nc2ccc3c(c2)[C@]2(O[C@@H](CCO)[C@H]([Si](C)(C)c4ccc(OC)cc4)[C@H]2C)C(=O)N3Cc2ccccc2)cc1	Wnt5a (protein binding on small-molecule microarray)	category 3
COc1cc(C(O)C2C=CC3C(=O)NC(=O)C3N2Nc2ccc(Cl)cc2Cl)cc(OC)c1OC (stereo not given)	Wnt5a (protein binding on small-molecule microarray)	category 2
C=C(CCCC)/C(=C/C[C@H](OC(=O)c1ccncc1)c1ccc(CO)o1)c1cc(C(=O)OC)ccc1OC	Wnt5a (protein binding on small-molecule microarray)	category 1
Cc1cc(C)c(C(O)C2C=CC3C(=O)N(c4ccccc4)C(=O)C3N2Nc2ccccc2)c(C)c1 (stereo not given)	Wnt5a (protein binding on small-molecule microarray)	category 2
C[C@@H]1ON(c2ccccc2)[C@H](c2ccccc2)[C@H]1C(=O)N1C(=O)OC[C@H]1Cc1ccccc1	Wnt5a (protein binding on small-molecule microarray)	category 1
COC(=O)[C@]1(Cc2ccccc2N=[N+]=[N-])N=C(c2ccc(OCCCO)cc2)O[C@@H]1c1ccccc1	Wnt5a (protein binding on small-molecule microarray)	category 1
